tested.on: Ataxin-2 (Homo sapiens) (UniProt Q99700)
Sequence (Q99700 whole entry): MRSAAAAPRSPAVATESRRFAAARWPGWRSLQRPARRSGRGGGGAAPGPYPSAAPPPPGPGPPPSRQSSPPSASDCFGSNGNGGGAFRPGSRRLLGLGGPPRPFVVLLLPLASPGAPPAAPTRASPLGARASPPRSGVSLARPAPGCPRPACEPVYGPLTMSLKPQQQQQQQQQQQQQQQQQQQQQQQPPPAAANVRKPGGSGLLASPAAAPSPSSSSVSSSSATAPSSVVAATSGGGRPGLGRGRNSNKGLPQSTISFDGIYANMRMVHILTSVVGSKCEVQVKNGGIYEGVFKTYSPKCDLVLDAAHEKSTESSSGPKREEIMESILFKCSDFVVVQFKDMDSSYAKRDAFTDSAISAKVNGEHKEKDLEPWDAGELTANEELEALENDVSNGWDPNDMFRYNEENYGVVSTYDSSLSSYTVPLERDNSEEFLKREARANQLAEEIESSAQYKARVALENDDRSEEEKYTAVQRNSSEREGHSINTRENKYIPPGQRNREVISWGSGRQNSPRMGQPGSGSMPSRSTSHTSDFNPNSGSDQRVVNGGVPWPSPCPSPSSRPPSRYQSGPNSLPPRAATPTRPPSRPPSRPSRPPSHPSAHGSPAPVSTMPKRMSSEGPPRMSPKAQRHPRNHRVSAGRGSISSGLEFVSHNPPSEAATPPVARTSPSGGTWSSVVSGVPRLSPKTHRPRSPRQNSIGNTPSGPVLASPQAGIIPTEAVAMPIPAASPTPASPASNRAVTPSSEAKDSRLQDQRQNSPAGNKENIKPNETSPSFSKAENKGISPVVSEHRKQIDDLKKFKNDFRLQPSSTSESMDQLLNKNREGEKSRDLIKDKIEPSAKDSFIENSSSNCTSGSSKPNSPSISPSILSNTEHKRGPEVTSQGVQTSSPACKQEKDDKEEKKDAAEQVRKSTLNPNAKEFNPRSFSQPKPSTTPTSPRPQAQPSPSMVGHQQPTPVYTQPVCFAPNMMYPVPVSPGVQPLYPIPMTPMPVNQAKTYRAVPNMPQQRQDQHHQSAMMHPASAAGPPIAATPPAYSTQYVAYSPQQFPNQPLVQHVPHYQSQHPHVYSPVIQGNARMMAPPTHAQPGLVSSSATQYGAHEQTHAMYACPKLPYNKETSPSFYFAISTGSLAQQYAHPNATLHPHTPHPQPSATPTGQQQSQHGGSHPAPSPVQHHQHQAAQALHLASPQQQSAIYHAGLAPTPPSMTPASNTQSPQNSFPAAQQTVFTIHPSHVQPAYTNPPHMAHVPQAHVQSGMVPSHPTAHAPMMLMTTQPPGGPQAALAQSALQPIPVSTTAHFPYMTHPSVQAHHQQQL
method.description: qHTS for Inhibitors of ATXN expression.
Assay type: functional
Hit rate of the full screen: of about 400,000 compounds, about 1,900 (0.47%) were called active. Inconclusive results (about 14%) are left out. No rule for the calls is given here. Many of the other results were omitted from the sample, so actives are more common in it than they were.
Mark one answer only. Choices: active, inactive

# lookup: test call for Cc1cc(=O)oc2cc(OCC(=O)N3CCN(C(C)c4ccccc4)CC3)c(Cl)cc12 (stereo not drawn)
inactive

# lookup: test call for Nc1ccc2c3c(cccc13)-c1ccccc1-2
inactive

# lookup: test call for Oc1nc2ccccc2n1C1CCN(C(CCc2ccccc2)c2nnnn2C2CCCCC2)CC1 (stereo not drawn)
active

# lookup: test call for Oc1nc2ccccc2n1C1CCN(C(c2ccccc2)c2nnnn2-c2ccc3c(c2)OCCO3)CC1 (stereo not drawn)
active

# lookup: test call for Oc1nc2ccccc2n1C1CCN(C(CCc2ccccc2)c2nnnn2-c2ccc3c(c2)OCCO3)CC1 (stereo not drawn)
active

# lookup: test call for O=C(Nc1cccc(C(F)(F)F)c1)C1CCCN1S(=O)(=O)c1cccc2nsnc12 (stereo not drawn)
active

# lookup: test call for COc1ccc2c(c1)NP(=S)(Oc1ccccc1)N2 (stereo not drawn)
inactive

# lookup: test call for O=C1NCN(c2ccccc2)C12CCN(C(c1cccs1)c1nnnn1Cc1ccccc1)CC2 (stereo not drawn)
active

# lookup: test call for Cc1cccc(-c2noc(-c3ccc4c(c3)OCO4)n2)c1
inactive

# lookup: test call for COc1ccc(OCC(=O)N2CCN(C/C=C/c3ccccc3)CC2)cc1
inactive

# lookup: test call for Cc1c(CC(=O)N2C[C@H]3C[C@@H](C2)c2cccc(=O)n2C3)c(=O)oc2cc(O)c(Cl)cc12
inactive

# lookup: test call for CC(Cc1ccccc1)NC(=O)CCCCC(=O)NC(C)Cc1ccccc1 (stereo not drawn)
inactive

# lookup: test call for CCCCn1nnnc1C(c1cccs1)N1CCC2(CC1)C(=O)NCN2c1ccccc1 (stereo not drawn)
active

These entries and their values trace back to ChEMBL document CHEMBL1201862.
